System: SK-MEL-5
experimentalDetails: NCI tumour cell line growth inhibition, 48 h
Activity calls are given as the source filed them. Rule as the data show it: active = GI50 up to about 1.1 µM and inactive = higher.

{"compound": "Cc1cccc(C(C)(C)C)c1NC(=O)CCl", "GI50": "> 100 µM (inactive)"}
{"compound": "CC(C)C[C@H]1[C@@H](OCc2ccccc2)COS(=O)N1[C@H](C)c1ccccc1 (stereo partly specified)", "GI50": "10.2 µM (inactive)"}
{"compound": "O=C(Oc1cccnc1)c1cc2cc(CCl)ccc2oc1=O", "GI50": "44.6 µM (inactive)"}
{"compound": "COC(=O)/C=C\\S/C(=C(/c1ccccc1)n1ccc(C(=O)OC)n1)c1ccccc1", "GI50": "29.5 µM (inactive)"}
{"compound": "N#Cc1cnn2cc[nH]c12", "GI50": "> 100 µM (inactive)"}
{"compound": "Cc1nc2ccc(F)cc2c2c1CCS2", "GI50": "30.3 µM (inactive)"}
{"compound": "Cc1ccc(SSCCCCS(=O)O)cc1", "GI50": "11.5 µM (inactive)"}
{"compound": "Cc1ncc([N+](=O)[O-])n1CCn1ccnc1[N+](=O)[O-]", "GI50": "38.3 µM (inactive)"}
{"compound": "COc1ccc(/C=N\\NC(=O)Nc2cccc3ccccc23)cc1", "GI50": "28.2 µM (inactive)"}
{"compound": "CC(=O)Oc1cc(-c2oc3cc(OC(C)=O)c(C4OC(CO)C(O)C(O)C4O)c(OC(C)=O)c3c(=O)c2O)c(OC(C)=O)cc1O (stereo unspecified)", "GI50": "> 100 µM (inactive)"}
{"compound": "CCCCCCC(C)CCCCCCCCCCC(=O)O (stereo unspecified)", "GI50": "> 100 µM (inactive)"}
